- subject-of-test: Estrogen receptor (Homo sapiens)
- assay-summary: qHTS assay to identify small molecule agonists of the estrogen receptor alpha (ER-alpha) signaling pathway using the BG1 cell line (AID 743079); further: nearly all actives have a fitted effect of over 20% in size
- assay-conditions: BG1Luc4E2 cells, ERE-luciferase agonist, 22 h; series mostly up to 70.3 µM
Records with an inconclusive call do not appear. Active and inactive are the calls of the source. The call rests on the fitted dose curve; in most records, active means well fitted activation curve with a large enough effect in the repeat runs; inconclusive means weak or mixed curves, or effect the other way; inactive means no such curve, though single readings can be large or run the other way.
measure: outcome

For orientation, consider the following solved cases.
[[record]]
compound = "N#Cc1ccc(C2CCCc3cncn32)cc1 (stereo not given)"
experimental_value = "inactive"

[[record]]
compound = "Cc1cc2c(cc1S(N)(=O)=O)S(=O)(=O)CCC2"
experimental_value = "inactive"

[[record]]
compound = "CN1C(=O)N(C)C(O)C1O (stereo not given)"
experimental_value = "inactive"

[[record]]
compound = "O=C1CCCCCCCCCCCN1"
experimental_value = "inactive"

[[record]]
compound = "CC(C(=O)O)c1ccc(CC2CCCC2=O)cc1 (stereo not given)"
experimental_value = "inactive"

[[record]]
compound = "COCCCOCCCOC"
experimental_value = "inactive"


-- ask Recorded outcome for Cc1ccc(Cl)cc1Cl , please?
-- reply inactive

-- ask Which value of outcome has been reported for CC1(C)C(O)C(C)(C)C1O (stereo not given) in the records?
-- reply inactive

-- ask Can you look up the measured outcome of N[C@H](C(=O)O)c1ccc(O)cc1 for me?
-- reply inactive

-- ask Item N=C(N)c1ccc2cc(OC(=O)c3ccc(N=C(N)N)cc3)ccc2c1 has what recorded outcome?
-- reply inactive

-- ask What does the data say about its outcome? Entry: OC1CCCCC1c1ccccc1 (stereo not given)
-- reply inactive

---

- assay-summary: qHTS assay to identify aromatase inhibitors - cell viability counter screen (AID 743084);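 further: cells stimulated with testosterone during compound exposure; nearly all actives have a fitted effect of over 55% in size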
- assay-conditions: MCF-7 aro ERE viability, CellTiter-Fluor, 24 h; series mostly up to 70.3 µM
Results filed as inconclusive are left out. Activity calls are given as the source filed them. Calls come from the whole dose curve; as a rule, active = well fitted cell-killing curve with a large enough effect in the repeat runs; inconclusive = weak or mixed curves, or effect the other way; inactive = no such curve, though single readings can be large or run the other way.
Respond using exactly one of the listed classes: active, inactive

[[record]]
compound = "Nc1ccc(S(=O)(=O)Nc2ccnn2-c2ccccc2)cc1"
class_name = "inactive"


-- ask What is the recorded call for this compound in the test? OCCCC1CCCCC1
-- reply inactive

-- ask Could you check what this test reported for COC(=O)c1cc(C(=O)OC)cc(S(=O)(=O)O)c1 ?
-- reply inactive

---

- subject-of-test: Cytochrome P450 2D6 (Homo sapiens) (UniProt P10635)
- Sequence (P10635 whole entry, looked up): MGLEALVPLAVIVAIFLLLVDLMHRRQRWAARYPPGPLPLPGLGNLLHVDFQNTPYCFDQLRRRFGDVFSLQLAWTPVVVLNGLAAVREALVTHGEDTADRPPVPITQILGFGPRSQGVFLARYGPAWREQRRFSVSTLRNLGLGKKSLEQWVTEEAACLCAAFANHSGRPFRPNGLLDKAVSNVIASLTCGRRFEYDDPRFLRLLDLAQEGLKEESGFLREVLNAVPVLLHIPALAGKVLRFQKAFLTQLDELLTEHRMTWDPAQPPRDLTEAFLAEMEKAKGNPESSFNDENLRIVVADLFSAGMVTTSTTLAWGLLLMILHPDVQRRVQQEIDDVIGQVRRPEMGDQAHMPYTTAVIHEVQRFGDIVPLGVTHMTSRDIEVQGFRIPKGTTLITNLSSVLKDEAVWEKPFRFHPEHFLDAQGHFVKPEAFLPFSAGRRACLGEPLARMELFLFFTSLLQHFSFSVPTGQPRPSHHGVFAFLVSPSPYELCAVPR
- assay-summary: Cytochrome P450 Family 2 Subfamily D Member 6 (CYP2D6) small molecule antagonists: luciferase reporter qHTS assay (AID 1671196); further: nearly all actives have a fitted effect of over 50% in size
- assay-conditions: P450-Glo CYP2D6 enzyme assay, luciferin luminescence, 1 h; series mostly up to 115 µM
Records with an inconclusive call do not appear. Activity calls are given as the source filed them. Calls come from the whole dose curve; as a rule, active = well fitted inhibition curve with a large enough effect in the repeat runs; inconclusive = weak or mixed curves; inactive = no such curve, though single readings can be large or run the other way.
Assign a class; possible classes are active, inactive

[[record]]
molecule = "CCOC(=O)C(=O)OCC"
class_name = "active"

[[record]]
molecule = "NC(=O)c1ccc(N)cc1"
class_name = "inactive"

[[record]]
molecule = "CC(C)c1cc2c(cc1S(=O)(=O)O)[C@@]1(C)CCC[C@@](C)(C(=O)O)[C@@H]1CC2"
class_name = "inactive"

[[record]]
molecule = "COC(=O)CCSCCC(=O)OC"
class_name = "inactive"

[[record]]
molecule = "NS(=O)(=O)c1cc(C(=O)O)cc(N2CCCC2)c1Oc1ccccc1"
class_name = "inactive"


-- ask Field: outcome | Entry: CO[C@]12C[C@@H](COC(=O)c3cncc(Br)c3)CN(C)[C@@H]1Cc1cn(C)c3cccc2c13
-- reply active

-- ask Please let me know the test result on file for C[C@H]1C[C@@H](O)CC(C)(C)C1 .
-- reply inactive

Where do these numbers come from? They come from PubChem BioAssay (Tox21).
